The reported numbers originate from patent US20260092061A1.

Target: BRD4 (Homo sapiens, UniProt O60885)
Construct: HiBiT-BRD4 HEK293 CRISPR CPM (Promega CS302312); host or cells: HEK293, CRISPR-edited (HiBiT at the BRD4 locus)
Experiment: BRD4 degradation, HiBiT-BRD4 HEK293 CRISPR CPM cells, NanoGlo Lytic Endpoint assay (Assay Protocol 1)
Format: cell-based
Conditions: HEK293, Table 5
VALUE_KIND: Dmax

INSERT INTO assay_data (molecule, readout_value) VALUES
  ('COc1cc(-c2cn(C)c(=O)c(C)c2C)cc(OC)c1CN1CC2CC1CN2C(=O)/C(C#N)=C/c1nccs1 (mixture of isomers) [BRD9i]', '40 to 70%'),
  ('COc1cc(-c2cn(C)c(=O)c(C)c2C)cc(OC)c1CN1CCN(C(=O)/C(C#N)=C/c2cccc(Br)n2)CC1 [BRD9h]', '40 to 70%'),
  ('COc1cc(-c2cn(C)c(=O)c(C)c2C)cc(OC)c1CN1C2CC1CN(C(=O)/C(C#N)=C/c1cccc(Br)n1)C2 (mixture of isomers) [BRD9o]', '25 to 40%'),
  ('COc1cc(-c2cn(C)c(=O)c(C)c2C)cc(OC)c1CN(C)C1CCN(C(=O)/C(C#N)=C/C(C)(C)C)CC1 [BRD9d]', '< 25%'),
  ('COc1cc(-c2cn(C)c(=O)c(C)c2C)cc(OC)c1CN1CC2CC1CN2C(=O)/C(C#N)=C/C(C)(C)C (mixture of isomers) [BRD9b]', '> 75%'),
  ('COc1cc(-c2cn(C)c(=O)c(C)c2C)cc(OC)c1CN(C)C(=O)/C(C#N)=C/C(C)(C)C [BRD9ac]', '25 to 40%'),
  ('COc1cc(-c2cn(C)c(=O)c(C)c2C)cc(OC)c1CN1CCN(C(=O)/C(C#N)=C/C(C)(C)C)CC1 [BRD9a]', '> 75%'),
  ('COc1cc(-c2cn(C)c(=O)c(C)c2C)cc(OC)c1CN1CCCN(C(=O)/C(C#N)=C/C(C)(C)C)CC1 [BRD9c]', '> 75%'),
  ('COc1cc(-c2cn(C)c(=O)c(C)c2C)cc(OC)c1CN1CCN(C(=O)/C(C#N)=C/C(C)(C)C)C2(CC2)C1 [BRD9e]', '> 75%');

###

Biological target: BRD9 (Homo sapiens)
Sequence (Q9H8M2 1-597): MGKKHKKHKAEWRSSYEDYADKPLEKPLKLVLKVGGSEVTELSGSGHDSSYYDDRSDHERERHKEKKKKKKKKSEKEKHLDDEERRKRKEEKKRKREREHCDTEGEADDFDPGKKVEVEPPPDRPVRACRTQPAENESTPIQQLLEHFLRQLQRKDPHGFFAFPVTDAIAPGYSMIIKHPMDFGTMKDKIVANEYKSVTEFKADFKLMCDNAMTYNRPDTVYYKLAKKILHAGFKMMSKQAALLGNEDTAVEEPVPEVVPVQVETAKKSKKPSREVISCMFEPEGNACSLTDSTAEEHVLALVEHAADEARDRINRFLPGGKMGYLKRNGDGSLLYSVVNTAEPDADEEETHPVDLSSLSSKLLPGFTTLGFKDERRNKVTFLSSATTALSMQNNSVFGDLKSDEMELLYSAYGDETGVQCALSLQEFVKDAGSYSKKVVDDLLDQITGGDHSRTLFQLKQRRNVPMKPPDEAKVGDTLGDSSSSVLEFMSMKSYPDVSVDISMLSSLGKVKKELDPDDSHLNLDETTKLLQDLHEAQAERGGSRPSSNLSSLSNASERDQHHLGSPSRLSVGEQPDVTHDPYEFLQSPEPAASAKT
Experiment: BRD9 degradation, HiBiT-BRD9 KI HEK293 (LgBiT) cells, NanoGlo Lytic Endpoint assay (Assay Protocol 1)
Type: cell-based
Conditions: Assay protocol 1; BRD9 degradation; read-out: DC50
VALUE_KIND: DC50

INSERT INTO assay_data (compound, readout_value) VALUES
  ('COc1cc(-c2cn(C)c(=O)c(C)c2C)cc(OC)c1CN1CCN(Cc2cccc3c2CCN(C(=O)/C(C#N)=C\C(C)(C)CF)C3C)C2(CC2)C1 (mixture of isomers)', '< 1.25 nM'),
  ('COc1cc(-c2cn(C)c(=O)c(C)c2C)cc(OC)c1CN1CC2CCC(C1)N2Cc1cccc2c1CCN(C(=O)/C(C#N)=C/C(C)(C)C)C2C (mixture of isomers)', '10 to 25 nM'),
  ('COc1cc(-c2cn(C)c(=O)c(C)c2C)cc(OC)c1CN(C)Cc1cccc(C2CCCN2C(=O)/C(C#N)=C/C(C)(C)C)c1 (mixture of isomers)', '1.25 to 10 nM'),
  ('COc1cc(-c2cn(C)c(=O)c(C)c2C)cc(OC)c1CN1CCCN(Cc2cccc3c2CCN(C(=O)/C(C#N)=C/c2cccc(Br)n2)C3C)CC1 (mixture of isomers)', '1.25 to 10 nM'),
  ('COCC1(/C=C(\C#N)C(=O)N2CCc3c(CN4CCN(Cc5c(OC)cc(-c6cn(C)c(=O)c(C)c6C)cc5OC)CC45CC5)cccc3C2C)CC1 (mixture of isomers)', '< 1.25 nM'),
  ('COc1cc(-c2cn(C)c(=O)c(C)c2C)cc(OC)c1CN1CCC(Oc2cccc3c2CCN(C(=O)/C(C#N)=C/C(C)(C)C)C3C)CC1 (mixture of isomers)', '< 1.25 nM'),
  ('COc1cc(-c2cn(C)c(=O)c(C)c2C)cc(OC)c1CN1CCN(Cc2cccc3c2CCN(C(=O)/C(C#N)=C/c2ccnc(C)n2)C3C)CC1 (mixture of isomers)', '< 1.25 nM'),
  ('COc1cc(-c2cn(C)c(=O)c(C)c2C)cc(OC)c1CN1CC(Oc2ccc3c(c2)CCN(C(=O)/C(C#N)=C/c2cccc(Br)n2)C3C)C1 (mixture of isomers)', '< 1.25 nM'),
  ('COc1cc(-c2cn(C)c(=O)c(C)c2C)cc(OC)c1CN1CCC2(CC1)CN(c1cccc(C3CCCN3C(=O)C(C#N)=CC(C)(C)C)c1)C2 (single isomer, unassigned)', '< 1.25 nM');

###

Entries and their measured DC50 follow.
Molecular target: BRD9 (Homo sapiens, UniProt Q9H8M2)
Sequence (Q9H8M2 1-597): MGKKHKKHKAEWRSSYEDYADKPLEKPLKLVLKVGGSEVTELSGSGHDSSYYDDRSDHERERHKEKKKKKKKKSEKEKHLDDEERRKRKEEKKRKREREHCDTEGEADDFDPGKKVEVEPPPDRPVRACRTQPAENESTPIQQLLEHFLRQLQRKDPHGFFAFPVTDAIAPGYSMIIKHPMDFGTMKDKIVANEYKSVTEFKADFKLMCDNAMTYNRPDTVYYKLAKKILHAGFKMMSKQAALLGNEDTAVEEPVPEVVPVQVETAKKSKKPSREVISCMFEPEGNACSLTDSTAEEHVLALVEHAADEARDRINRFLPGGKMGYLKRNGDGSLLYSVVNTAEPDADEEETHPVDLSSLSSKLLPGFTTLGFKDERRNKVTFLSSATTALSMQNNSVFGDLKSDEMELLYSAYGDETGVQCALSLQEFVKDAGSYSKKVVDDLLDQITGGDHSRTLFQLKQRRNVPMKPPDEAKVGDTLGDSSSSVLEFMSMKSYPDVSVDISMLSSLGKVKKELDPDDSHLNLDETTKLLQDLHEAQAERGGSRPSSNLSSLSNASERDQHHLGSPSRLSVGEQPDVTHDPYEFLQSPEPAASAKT
Experiment: BRD9 degradation, HiBiT-BRD9 KI HEK293 (LgBiT) cells, NanoGlo Lytic Endpoint assay (Assay Protocol 1)
Type: cell-based
Conditions: Assay protocol 1; BRD9 degradation; read-out: DC50
Method: HiBiT-BRD9 KI HEK293 (LgBiT) Cells (Promega CS3023412) were seeded at 8000 cells per well (38 μL) in sterile white bottom 384 well plates (Invitrogen 164610 or Greiner 781080) and incubated overnight at 37° C. with 5% CO2. The next day, compounds were prepared at 1000× final concentration in DMSO and diluted 1:100 in media (DMEM PAN Biotech P04-03550+10% FBS ATCC 302025). […]
VALUE_KIND: DC50

INSERT INTO results (compound, readout_value) VALUES
  ('COc1cc(-c2cn(C)c(=O)c(C)c2C)cc(OC)c1CN1CCN(Cc2cccc3c2CCN(C(=O)/C(C#N)=C/c2cccc(C)n2)C3C)CC1 (mixture of isomers)', '< 1.25 nM'),
  ('COc1cc(-c2cn(C)c(=O)c(C)c2C)cc(OC)c1CN1C2CC1CN(Cc1cccc3c1CCN(C(=O)/C(C#N)=C/C(C)(C)C)C3C)C2 (mixture of isomers)', '10 to 25 nM'),
  ('COc1cc(-c2cn(C)c(=O)c(C)c2C)cc(OC)c1CN1CCN(Cc2cccc3c2CCN(C(=O)/C(C#N)=C/c2ncc(C(F)(F)F)s2)C3C)CC1 (mixture of isomers)', '1.25 to 10 nM'),
  ('COc1cc(-c2cn(C)c(=O)c(C)c2C)cc(OC)c1CN1CCN(Cc2cccc3c2CCN(C(=O)/C(C#N)=C/c2cc(C)ccn2)C3C)CC1 (mixture of isomers)', '1.25 to 10 nM'),
  ('COc1cc(-c2cn(C)c(=O)c(C)c2C)cc(OC)c1CN(C)Cc1cccc2c1CCN(C(=O)/C(C#N)=C/c1cccc(Br)n1)C2C (mixture of isomers)', '1.25 to 10 nM');
